- method: in vitro
- assay conditions: male, Sprague-Dawley, rat, 0 min, 1 μM
Give rule met when the value for Concentration (μM) of analyte PEA, 0 min is at least 0.02 µM. Give rule not met when it is less.

Quick check: does CCCCCCCCCCCCCCCC(=O)NCCOC(=O)CCC(=O)OCC(COC(=O)CCCCCCC)OC(=O)CCCCCCC (stereo not shown) [Compound I-3, PEA-Succinate-Glycerol-Di-Caprylic] have Concentration (μM) of analyte PEA, 0 min greater than or equal to 0.02 µM?
rule not met

Textbook exercise: given the entry CCCCCCCCCCCCCCCC(=O)NCCOC(=O)CCC(=O)OCC(O)CO (stereo not shown) [Compound I-9] , state whether its Concentration (μM) of analyte PEA, 0 min is greater than or equal to 0.02 µM.
rule met

Concentration (μM) of analyte PEA, 0 min >= 0.02 µM for CCCCCCCCCCCCCCCC(=O)NCCOC(=O)CCC(=O)OCC(COC(=O)CCC)OC(=O)CCC (stereo not shown) [Compound I-11] ?
rule not met

Given CCCCCCCCCCCCCCCC(=O)NCCOC(=O)CCC(=O)OC[C@H]1O[C@@](CO)(O[C@H]2O[C@H](CO)[C@@H](O)[C@H](O)[C@H]2O)[C@@H](O)[C@@H]1O [Compound I-7] , state whether its Concentration (μM) of analyte PEA, 0 min is at least 0.02 µM.
rule met

Determine whether measured Concentration (μM) of analyte PEA, 0 min meets or exceeds 0.02 µM for CCCCCCCCCCCCCCCC(=O)NCCOC(=O)CCC [Compound I-2]
rule met
